This collection of values is drawn from PubChem BioAssay AID1259418.

assay: inhibitors of Toxoplasma growth in IFN-γ-primed HeLa – cell-based, ME49Luc, luciferase, 72 h, dose response (AID 1259418); details: T. gondii ME49Luc in IFN-y HeLa, stronger effect = lower value, -100% = high-dose IFN-γ control wells; at 19.5 µM unless noted
The campaign covered roughly 3,400 compounds. About 840 (25%) were called active. About 11% were inconclusive and are not listed. The list is a sample of the results. Results with a measured potency or affinity are listed apart.
Overview of reported max activity across a group of compounds:
measurementType: max activity

- compound: "O=C(CC1N=C2c3ccccc3N=C(SCc3ccc(F)cc3)N2C1=O)NCc1ccccc1 (stereo not given)"
  result: "12.9% [at 10 µM] (inactive)"
- compound: "O=C(CC1N=C2c3ccccc3N=C(SCc3cccc(F)c3)N2C1=O)NCc1ccc(F)cc1 (stereo not given)"
  result: "31.4% [at 2.6 µM] (inactive)"
- compound: "N#CCSC1=Nc2ccccc2C2=NC(CCC(=O)NCCc3ccccc3)C(=O)N12 (stereo not given)"
  result: "23.8% [at 0.16 µM] (inactive)"
- compound: "CCOC(=O)CSC1=Nc2ccccc2C2=NC(CC(=O)NCc3ccccc3)C(=O)N12 (stereo not given)"
  result: "-17% [at 0.16 µM] (inactive)"
- compound: "COc1ccccc1CNC(=O)CCC1N=C2c3ccccc3N=C(SCc3ccc(C)cc3)N2C1=O (stereo not given)"
  result: "16.9% [at 0.16 µM] (inactive)"
